This collection of values is drawn from patent US20110217293A1.

# Measured On: sPLA2-V (Homo sapiens, UniProt P39877)
# Sequence (P39877 21-138): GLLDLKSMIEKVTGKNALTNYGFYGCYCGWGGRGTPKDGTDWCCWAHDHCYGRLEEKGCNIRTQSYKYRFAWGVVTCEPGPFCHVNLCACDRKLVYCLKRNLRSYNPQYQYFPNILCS
# Test Summary: sPLA2 enzyme activity assay, Group V
# Format: biochemical
# Stated Conditions: recombinant human sPLA2-V, data not shown
pIC50: −log10 of the molar value.
Quantity Name: pIC50

Assign pIC50 to the following record: O=C1c2c(O)cc(O)cc2O[C@H](c2ccc(O)cc2)[C@H]1c1c(O)cc(O)c2c(=O)cc(-c3ccc(O)c(O)c3)oc12 [morelloflavone]
< 5.00
